- system name: CYP2D6 (Homo sapiens, UniProt P10635)
- Sequence (P10635 whole entry): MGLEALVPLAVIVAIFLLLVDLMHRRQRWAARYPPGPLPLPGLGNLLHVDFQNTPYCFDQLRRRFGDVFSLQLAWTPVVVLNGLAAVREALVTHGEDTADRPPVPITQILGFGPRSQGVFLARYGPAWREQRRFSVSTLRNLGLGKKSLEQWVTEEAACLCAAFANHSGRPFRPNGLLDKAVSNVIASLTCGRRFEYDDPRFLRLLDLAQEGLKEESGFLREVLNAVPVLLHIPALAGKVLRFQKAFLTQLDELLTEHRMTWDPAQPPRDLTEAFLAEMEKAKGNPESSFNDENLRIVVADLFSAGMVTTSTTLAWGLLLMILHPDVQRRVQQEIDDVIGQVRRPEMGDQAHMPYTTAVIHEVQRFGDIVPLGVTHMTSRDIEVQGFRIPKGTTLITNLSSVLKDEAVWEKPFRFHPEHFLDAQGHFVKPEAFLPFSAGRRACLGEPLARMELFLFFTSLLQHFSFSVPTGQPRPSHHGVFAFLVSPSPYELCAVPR
- measurement protocol: biochemical
attribute measured: IC50 (µM)

compound	system name	uom	readout relation	observed value
CC(C)[C@@H]1NCCOc2ccccc2CC[C@@H](C)NC(=O)[C@@H]([C@@H](C)c2ccccc2)NC(=O)[C@H](C(C)O)N(C)C1=O (some centres unmarked) [Compound 1390]	CYP2D6 (Homo sapiens, UniProt P10635)	µM	>	20
CCC(C)[C@@H]1NCCOc2ccccc2/C=C/CNC(=O)[C@@H](Cc2cccc(F)c2)NC(=O)[C@H](C(C)O)N(C)C1=O (some centres unmarked) [Compound 1326]	CYP2D6 (Homo sapiens, UniProt P10635)	µM	>	5
CC(C)[C@@H]1NCCOc2ccccc2C2CCC(C2)NC(=O)[C@@H](Cc2ccccc2)NC(=O)[C@H](C(C)O)N(C)C1=O (some centres unmarked) [Compound 1848]	CYP2D6 (Homo sapiens, UniProt P10635)	µM	=	14.1
CC(C)[C@@H]1NCCOc2ccccc2/C=C/CNC(=O)[C@@H](Cc2ccccc2)NC(=O)[C@H](C(C)O)N(C)C1=O (some centres unmarked) [Compound 1319]	CYP2D6 (Homo sapiens, UniProt P10635)	µM	=	19.1
CC(O)[C@H]1C(=O)N[C@H](Cc2ccccc2)C(=O)NCC#Cc2c(F)cccc2OCCN[C@@H](C2(C)CC2)C(=O)N1C (some centres unmarked) [Compound 1876]	CYP2D6 (Homo sapiens, UniProt P10635)	µM	=	23.1
CCC(C)[C@@H]1NCCOc2ccccc2/C=C/CNC(=O)[C@@H](Cc2ccc(C(F)(F)F)cc2)NC(=O)[C@H](C(C)O)N(C)C1=O (some centres unmarked) [Compound 1327]	CYP2D6 (Homo sapiens, UniProt P10635)	µM	>	25
CC(C)[C@@H]1NCCOc2ccccc2C#C[C@@H](C)NC(=O)[C@@H](Cc2ccccc2)NC(=O)[C@H](C(C)O)N(C)C1=O (some centres unmarked) [Compound 1688]	CYP2D6 (Homo sapiens, UniProt P10635)	µM	=	20.2
CC(O)[C@H]1C(=O)N[C@H](Cc2ccccc2)C(=O)NCC#Cc2ccc(F)cc2OCCN[C@@H](C2(C)CC2)C(=O)N1C (some centres unmarked) [Compound 1918]	CYP2D6 (Homo sapiens, UniProt P10635)	µM	=	8.1

The reported numbers originate from patent US20110105389A1.
